Known GI50 of a selection of compounds
- Tested on: OVCAR-8
- Test Protocol: NCI tumour cell line growth inhibition, 48 h
Activity calls are given as the source filed them. No stated cut-off is given here; in the data, active = GI50 up to about 1.1 µM and inactive = higher.

## Input Can you look up the measured GI50 of O=[N+]([O-])c1ccc(C2SCc3nc4ccccc4n32)cc1 (stereo not drawn) for me?
## Output > 100 µM (inactive)

## Input Can you look up the measured GI50 of `O=Cc1c(O)ccc2ccc(O)c(-c3c(O)ccc4ccc(O)cc34)c12` for me?
## Output > 100 µM (inactive)

## Input Can you look up the measured GI50 of O=C(OCc1ccccc1)N1c2cc([N+](=O)[O-])ccc2C(=O)N2CCC[C@H]2C1O (stereo partly drawn) for me?
## Output > 100 µM (inactive)

## Input Can you look up the measured GI50 of `Cc1cc(=O)oc2cc(O)ccc12` for me?
## Output > 100 µM (inactive)

## Input Can you look up the measured GI50 of C=C1CC2CC[C@@]34C[C@@H]5O[C@@H]6C(O[C@H]7CC[C@H](CC(=O)OC8[C@@H](C)C9OC%10C[C@]%11(C[C@@H]%12O[C@@]%13(C[C@@H](C)[C@@H]%12O%11)C[C@H](C)[C@@H]%11OC%12CC(C(O)CO)OC%12C[C@@H]%11O%13)OC%10CC9O[C@H]8C[C@H]8O[C@@H](CC[C@@H]1O2)C[C@@H](C)C8=C)O[C@@H]7[C@@H]6O3)C5O4 (stereo partly drawn) for me?
## Output 0.00249 µM (active)

* * *

- Test system: 786-0
- Test Protocol: NCI tumour cell line growth inhibition, 48 h
Active and inactive are the calls of the source. Cut-off read from the data, not from the text of the source: active = GI50 up to about 1.1 µM and inactive = higher.
# valid calls are active, inactive; nothing else

Observe how each entry below is paired with its result.
- CCc1nn(S(=O)(=O)c2ccc(C)cc2)c2c1CS(=O)(=O)CC2: inactive
- CN1C(=O)C(C(N)=O)C2CC1(C)Oc1ccccc12 (stereo unspecified): inactive
- C=C1CCC2[C@@H](CCC3[C@]2(C)CCC[C@]3(C)C(=O)OC)C1CC=O (stereo partly specified): inactive
- Cc1cc(C)nc(NS(=O)(=O)c2ccc(NC(=O)c3ccc4nc5ccccc5c(Nc5ccc(S(=O)(=O)N=C(N)N)cc5)c4c3)cc2)n1: inactive
- CSC(SC)=C(C#N)C(=O)Nc1ccc(C)cc1: inactive
- COc1ccc(C(=O)O[C@H]2[C@@H]3C=CO[C@@H](OC4OC(CO)C(O)C(O)C4O)[C@@H]3[C@@]3(CO)O[C@@H]23)cc1O (stereo partly specified): inactive
- CCCCn1cnc2c(c(CC#N)nn2-c2ccccc2)c1=N: inactive
- NC1=NN(c2ccccc2)C(=O)C1C(=O)C(=O)Nc1ccc(Cl)c(Cl)c1 (stereo unspecified): inactive
- O=[N+]([O-])c1ccccc1OCCOc1ccccc1[N+](=O)[O-]: inactive
- CC(C)=CCC[C@@H](C)c1c2nc3ccccc3sc-2c(C)c(=O)c1O: inactive

## Input What did this assay record as the result for O=C(CCC(NC(=O)OCc1ccccc1)C(=O)OCc1ccccc1)Nc1ccc(OCc2ccccc2)cc1 (stereo unspecified) ?
## Output inactive

## Input What did this assay record as the result for `Oc1ccc(Br)cc1/C=N/c1c(NC2CCCCC2)oc2ccc(Br)cc12` ?
## Output inactive

## Input What did this assay record as the result for CC(CN(C)C)C(C#N)(c1ccccc1)c1ccccc1 (stereo unspecified) ?
## Output inactive

## Input What did this assay record as the result for `O=C1c2ccccc2C(=O)c2c(O)c(O)cc(O)c21` ?
## Output inactive

## Input What did this assay record as the result for `Cc1cnc2c(c1)C(=O)N(c1ccc(Oc3ccccc3)cc1)S2(=O)=O` ?
## Output inactive

## Input What did this assay record as the result for `Oc1nc2ccccc2c(O)c1Cc1ccccc1` ?
## Output inactive

## Input What did this assay record as the result for `C=C(C)CNCCN` ?
## Output inactive

## Input What did this assay record as the result for CCCCCCCCCCCCCCCCCCNc1ccn(C2OC(COP(=O)(O)OCC3OC(n4ccc(NC(=O)CCCCCCCCCCCCCCCCC)nc4=O)C(OC(C)=O)C3OC(C)=O)C(OC(C)=O)C2OC(C)=O)c(=O)n1 (stereo unspecified) ?
## Output inactive

## Input What did this assay record as the result for `NC(=O)c1cnc2sc3ccccc3n2c1=O` ?
## Output inactive

## Input What did this assay record as the result for `O=C1N/C(=N\C2CCCCC2)C2(CCN(CCCC3(c4ccc(F)cc4)OCCO3)CC2)N1c1ccccc1` ?
## Output inactive

## Input What did this assay record as the result for C#CCNC(CSSCC(N)C(=O)O)C(=O)O (stereo unspecified) ?
## Output inactive

## Input What did this assay record as the result for CCOP(=O)(C[S+](C)[O-])O[C@@H]1C[C@H](C)CC[C@H]1C(C)C (stereo partly specified) ?
## Output inactive

* * *

- Test system: SK-MEL-2
- Test Protocol: NCI tumour cell line growth inhibition, 48 h
Calls of active or inactive are those of the source. No stated cut-off is given here; in the data, active = GI50 up to about 1.1 µM and inactive = higher.
Known GI50 of a selection of compounds

• COC(=O)CCC(=O)CC(=O)C(=O)Nc1ccc(F)cc1 = > 100 µM (inactive)

Alright, here's another compound for you.
## Input Can you look up the measured GI50 of `CCc1ccccc1NNc1cc(=O)[nH]c(=O)[nH]1` for me?
## Output 16.6 µM (inactive)

* * *

- Tested on: MDA-N
- Test Protocol: NCI tumour cell line growth inhibition, 48 h
The source made the active and inactive calls. Cut-off read from the data, not from the text of the source: active = GI50 up to about 1.1 µM and inactive = higher.
Known GI50 of a selection of compounds

The examples below pair each entry with its known result.
* CCCCCCCCCCCCCCCCOP(=O)(O)OCC(NC(C)=O)C(=O)O (stereo unspecified) | 54.2 µM (inactive)
* Cc1cnc2c(c1)C(=O)N(c1ccc(Oc3ccccc3)cc1)S2(=O)=O | > 100 µM (inactive)
* COC(=O)C1=C(C(=O)OC)C2OC1c1cc3ccccc3cc12 | 6.62 µM (inactive)
* CN(C)CCOc1ccc2[nH]c(C(=O)N3CC(CCl)c4c3cc([N+](=O)[O-])c3ccccc43)cc2c1 (stereo unspecified) | 3.68 µM (inactive)
* CC(=O)NCCc1c(-c2[nH]c3ccccc3c2CCNC(C)=O)[nH]c2ccccc12 | > 100 µM (inactive)
* S=C1SCN(Cc2ccco2)CN1c1ccc(Br)cc1 | 16.9 µM (inactive)
* COc1cc(S(=O)(=O)Nc2nc(-c3ccc(N4C(=O)/C(=C/c5ccccc5)N=C4c4ccccc4)cc3)cs2)ccc1Cl | 37.3 µM (inactive)
* Clc1cccc(Cl)c1C1ON=C(c2ccccc2)N1C12CC3CC(CC(C3)C1)C2 (stereo unspecified) | 37.6 µM (inactive)
* O=NN1C(c2ccccc2)CC(=NO)CC1c1ccccc1 (stereo unspecified) | > 100 µM (inactive)
* Cc1c(F)c(N)c2c(=O)cc(-c3ccc(NC(=O)[C@@H](N)CCCCN)c(F)c3)oc2c1F | 7.26 µM (inactive)

## Input Param readout = GI50; param system = MDA-N; param query = `OCCNc1nc2c(N3CCCC3)nc(N3CCNCC3)nc2nc1NCc1ccccc1` ; response: value
## Output 11.9 µM (inactive)

## Input Param readout = GI50; param system = MDA-N; param query = S=C1CC(c2ccccc2)Sc2ccccc2N1 (stereo unspecified) ; response: value
## Output 54 µM (inactive)

## Input Param readout = GI50; param system = MDA-N; param query = CC(=O)Nc1ccc(C(=O)NN2C(=O)CSC2c2ccccc2)cc1 (stereo unspecified) ; response: value
## Output > 100 µM (inactive)

## Input Param readout = GI50; param system = MDA-N; param query = `Nc1ncc(Br)c(NCC2(CO)CCC2)n1` ; response: value
## Output > 100 µM (inactive)

## Input Param readout = GI50; param system = MDA-N; param query = `Oc1nc2ccccc2c(O)c1Cc1ccccc1` ; response: value
## Output > 100 µM (inactive)

## Input Param readout = GI50; param system = MDA-N; param query = CCOC(=O)NC(NCC(O)c1ccccc1)(C(F)(F)F)C(F)(F)F (stereo unspecified) ; response: value
## Output > 100 µM (inactive)

## Input Param readout = GI50; param system = MDA-N; param query = `CCOC(=O)c1ccc(Nc2cnc3ccc(C(F)(F)F)cc3n2)cc1` ; response: value
## Output 17.9 µM (inactive)

## Input Param readout = GI50; param system = MDA-N; param query = `CC1(C)CN=C(Nc2cccc(C(F)(F)F)c2)S1` ; response: value
## Output > 100 µM (inactive)

## Input Param readout = GI50; param system = MDA-N; param query = `CC(=O)O[C@@H]1[C@H]2[C@@H](OC(=O)c3ccccc3)[C@@H](C)C[C@]2(O)[C@H](OC(C)=O)[C@@]2(C)[C@@H]3CC(C)(C)C(=O)[C@]3(OC(C)=O)C[C@@]12C` ; response: value
## Output 8.91 µM (inactive)

## Input Param readout = GI50; param system = MDA-N; param query = `O=C1C(Cl)=C(Nc2ccc(S(=O)(=O)Nc3ccccn3)cc2)C(=O)c2ccccc21` ; response: value
## Output 6.46 µM (inactive)

## Input Param readout = GI50; param system = MDA-N; param query = `Cc1cc(=O)nc(S(=O)(=O)NC(=O)Nc2cccc(Cl)c2)[nH]1` ; response: value
## Output > 100 µM (inactive)
